Kindly state pH of supernatant (final pH) for each of the entries shown.
# METHOD_SUMMARY: Equilibrium solubility in pH buffers (3.0-8.0), 20% captisol and water
# Type: physicochemical
# TEST_CONTEXT: pH = 5.0 buffer (50 mM citrate), 24 hrs
Where a name gives a salt, the structure may show the parent alone.
Give bare numbers.

// known answers, use as guide
CC(=O)NCC1CCN(Cc2cc(Oc3ccc(N4CCN(CCC(=O)O)CC4)nc3)nc(-c3cc(Cl)cc(Cl)c3)c2)CC1 [Fumarate Type A]    4.8
CC(=O)NCC1CCN(Cc2cc(Oc3ccc(N4CCN(CCC(=O)O)CC4)nc3)nc(-c3cc(Cl)cc(Cl)c3)c2)CC1 [HCl salt Type F]    5.0
CC(=O)NCC1CCN(Cc2cc(Oc3ccc(N4CCN(CCC(=O)O)CC4)nc3)nc(-c3cc(Cl)cc(Cl)c3)c2)CC1 [Freeform Type A]    5.2

With those in mind, consider the next compound.
Could you tell me which pH of supernatant (final pH) is on file for CC(=O)NCC1CCN(Cc2cc(Oc3ccc(N4CCN(CCC(=O)O)CC4)nc3)nc(-c3cc(Cl)cc(Cl)c3)c2)CC1 [Sulfate Type B] ?
4.4

Attribution: patent US20240307374A1
